# test_method_notes: pharmacokinetics of 16 ginsenosides in rat plasma after oral administration of RGS
# Assay type: in vivo
# experimental_context: SD, rat, in vivo, po, 100 mg/kg, T1/2
observable: half-life (min)
Quick note: give the figure in min, leave out the unit.

Study these solved cases before continuing.
>  <compound>
C=C(CCC=C(C)C)C1CCC2(C)C1C(O)CC1C3(C)CCC(O)C(C)(C)C3C(OC3OC(CO)C(O)C(O)C3O)CC12C (stereo not drawn) [Rk3]

>  <test_value>
390

$$$$
>  <compound>
CC(C)=CCCC(C)(O)C1CCC2(C)C1C(O)CC1C3(C)CCC(O)C(C)(C)C3C(OC3OC(CO)C(O)C(O)C3OC3OC(CO)C(O)C(O)C3O)CC12C (stereo not drawn) [Rf]

>  <test_value>
396

$$$$
>  <compound>
CC(C)=CCC=C(C)C1CCC2(C)C1C(O)CC1C3(C)CCC(O)C(C)(C)C3C(OC3OC(CO)C(O)C(O)C3O)CC12C (stereo not drawn) [Rh4]

>  <test_value>
528

$$$$
>  <compound>
CC(C)=CCCC(C)(O)C1CCC2(C)C1C(O)CC1C3(C)CCC(OC4OC(CO)C(O)C(O)C4OC4OC(CO)C(O)C(O)C4O)C(C)(C)C3CCC12C (stereo not drawn) [Rg3]

>  <test_value>
1280

$$$$
>  <compound>
CC(C)=CCC=C(C)C1CCC2(C)C1C(O)CC1C3(C)CCC(OC4OC(CO)C(O)C(O)C4O)C(C)(C)C3CCC12C (stereo not drawn) [Rh3]

>  <test_value>
756

$$$$

The record that follows has no half-life shown yet.
Request: Entry CC(C)=CCC[C@](C)(O)[C@H]1CC[C@]2(C)[C@@H]1[C@H](O)C[C@@H]1[C@@]3(C)CC[C@H](O)C(C)(C)[C@@H]3[C@@H](O[C@@H]3O[C@H](CO)[C@@H](O)[C@H](O)[C@H]3O[C@@H]3O[C@@H](C)[C@H](O)[C@@H](O)[C@H]3O)C[C@]12C [Rg2, Ginsenoside Rg2] has what half-life?
Result: 1190
